system: Poa annua (POAAN); assay: B2 Post-Emergence Efficacy - Test 2; assay type: in vivo; settings: 30 g/Ha, 15 days after application, 0-100 scale
Listed here are compounds together with their documented Herbicidal activity POAAN.
Reply with just the number.

Past entries and their recorded results:
Cc1nn(C)c(=O)c(-c2c(F)ccc(Cl)c2CCc2ccc(F)cc2)c1O	30
Cc1nn(C)c(=O)c(-c2c(F)ccc(Cl)c2CCc2ccccc2C(F)(F)F)c1O	70
Cc1nn(C)c(=O)c(-c2c(F)ccc(Cl)c2CCc2ccc(C#N)cc2)c1O	20

Query: State the recorded Herbicidal activity POAAN for this entry: Cc1nn(C)c(=O)c(-c2c(F)ccc(Cl)c2CCc2ccc(C(F)(F)F)nc2)c1O
Result: 70

Query: And then Cc1nn(C)c(=O)c(-c2c(F)ccc(Cl)c2CCc2ccc(F)cc2)c1OC(=O)C(C)C , what is it?
Result: 10

Query: And then Cc1nn(C)c(=O)c(-c2c(F)ccc(Cl)c2CCc2ccc(Cl)cc2)c1OC(=O)C(C)C , what is it?
Result: 40

###

Listed here are compounds together with their documented Herbicidal activity VERPE.
system: Veronica persica (VERPE); test: B2 Post-Emergence Efficacy - Test 2; type: in vivo; conditions: 125 g/Ha, 15 days after application, 0-100 scale
Reply with just the number.

Past entries and their recorded results:
Cc1nn(C)c(=O)c(-c2c(F)ccc(Cl)c2CCc2ccc(F)cc2)c1OC(=O)C(C)C	80
Cc1nn(C)c(=O)c(-c2c(F)ccc(Cl)c2CCc2ccccc2C(F)(F)F)c1O	100
Cc1nn(C)c(=O)c(-c2c(F)ccc(Cl)c2CCc2ccc(Cl)cc2)c1OC(=O)C(C)C	90
Cc1nn(C)c(=O)c(-c2c(F)ccc(Cl)c2CCc2ccc(C(F)(F)F)nc2)c1O	100
Cc1nn(C)c(=O)c(-c2c(F)ccc(Cl)c2CCc2ccc(F)cc2)c1O	80

Query: Item Cc1nn(C)c(=O)c(-c2c(F)ccc(Cl)c2CCc2ccc(C#N)cc2)c1O with Veronica persica (VERPE) - Herbicidal activity VERPE?
Result: 80

###

Listed here are compounds together with their documented Herbicidal activity SIDSP.
system: Sida spinosa (SIDSP); experiment: B2 Post-Emergence Efficacy - Test 2; assay type: in vivo; conditions: 15 g/Ha, 15 days after application, 0-100 scale
Reply with just the number.

Cc1nn(C)c(=O)c(-c2c(F)ccc(Cl)c2CCc2ccccc2C(F)(F)F)c1O [Compound 1.066]	40

Query: State the recorded Herbicidal activity SIDSP for this entry: Cc1nn(C)c(=O)c(-c2c(F)ccc(Cl)c2CCc2ccc(F)cc2)c1O [Compound 1.048]
Result: 80

Query: And then Cc1nn(C)c(=O)c(-c2c(F)ccc(Cl)c2CCc2ccc(C(F)(F)F)nc2)c1O [Compound 1.042] , what is it?
Result: 90

Query: And then Cc1nn(C)c(=O)c(-c2c(F)ccc(Cl)c2CCc2ccc(C#N)cc2)c1O [Compound 1.024] , what is it?
Result: 80

###

tested on: Solanum nigrum (SOLNI); experiment: B1 Post-Emergence Efficacy - Test 1; assay type: in vivo; settings: 1000 g/ha, after 13 days, five point scale
Listed here are compounds together with their documented percentage damage caused to the plant, SOLNI.

Past entries and their recorded results:
Cc1nn(C)c(=O)c(-c2c(F)ccc(Cl)c2CCc2ccccc2C(F)(F)F)c1O [Compound 1.066]	5 (5=80-100%)
Cc1nn(C)c(=O)c(-c2c(F)ccc(Cl)c2CCc2ccc(F)c(F)c2)c1O [Compound 1.060]	5 (5=80-100%)
Cc1nn(C)c(=O)c(-c2c(F)ccc(Cl)c2CCc2ccc(C(F)(F)F)nc2)c1O [Compound 1.042]	5 (5=80-100%)
Cc1ccc(CCc2c(Cl)ccc(F)c2-c2c(OC(=O)C(C)C)c(C)nn(C)c2=O)cc1 [Compound 1.149]	5 (5=80-100%)
Cc1nn(C)c(=O)c(-c2c(F)ccc(Cl)c2CCc2ccc(C#N)cc2)c1O [Compound 1.024]	5 (5=80-100%)

Query: State the recorded percentage damage caused to the plant, SOLNI for this entry: Cc1nn(C)c(=O)c(-c2c(F)ccc(Cl)c2CCc2ccccc2)c1O [Compound 1.001]
Result: 5 (5=80-100%)

Query: And then Cc1nn(C)c(=O)c(-c2c(F)ccc(Cl)c2CCc2cccnc2)c1O [Compound 1.054] , what is it?
Result: 5 (5=80-100%)

Query: And then Cc1nn(C)c(=O)c(-c2c(F)ccc(Cl)c2CCc2ccc(F)cc2)c1OC(=O)C(C)C [Compound 1.125] , what is it?
Result: 5 (5=80-100%)

Query: And then Cc1nn(C)c(=O)c(-c2c(F)ccc(Cl)c2CCc2ccc(F)cc2)c1O [Compound 1.048] , what is it?
Result: 5 (5=80-100%)

Query: And then Cc1nn(C)c(=O)c(-c2c(F)ccc(Cl)c2CCc2ccc(Cl)cc2)c1OC(=O)C(C)C [Compound 1.089] , what is it?
Result: 5 (5=80-100%)
